Numbers sourced from PubChem BioAssay (NCI).

Entries and their measured TGI follow.
Tested on: BT-549 breast
measurement.protocol: NCI tumour cell line growth inhibition, 48 h
Give just the numeric value; µM need not be written.

* Cc1c2c(nn1-c1ccc(S/N=C3\SCC(=O)CN3c3ccccc3)cc1)-c1ccccc1CC2 | 34.5

Query string: Look up TGI of COc1ccc(N=NN2CCCC2)cc1 and report it.
Result string: 60.6

Query string: Look up TGI of O=C1c2cccnc2-c2nc(-c3ccc([N+](=O)[O-])cc3)cc3c2c1nc1ccccc13 and report it.
Result string: 28.6

Query string: Look up TGI of CC(=O)C1=CC=C/C1=N\Nc1ccccc1 and report it.
Result string: 27.4

Query string: Look up TGI of CCCCN(CCCC)CC(=O)c1ccc2cc(Cl)c3ccccc3c2c1 and report it.
Result string: 41.8

Query string: Look up TGI of CC(C)(C)NNc1c([N+](=O)[O-])cnn(-c2ccccc2)c1=O and report it.
Result string: 2.7

* * *

Test system: CAKI-1 renal
measurement.protocol: NCI tumour cell line growth inhibition, 48 h
attribute.measured: TGI

* Cc1ccc(Nc2ncnc3sc(SCc4ccccc4)nc23)cc1 | > 100 µM
* CCOC(=O)c1cc(-c2ccc(OC)c(OC)c2)cn1C | > 10 µM

Query string: Provide measured TGI on CAKI-1 renal for N#CC(C#N)=C1NC(=O)C(c2ccccc2)C(=O)N1 (centres undefined) please.
Result string: > 100 µM

Query string: Provide measured TGI on CAKI-1 renal for COc1ccc(C2CC(c3cc(OC)c(OC)c(OC)c3)=NN2)cc1 (centres undefined) please.
Result string: 63.5 µM

Query string: Provide measured TGI on CAKI-1 renal for C=C(C)C1CC2=C(C(=O)OC)C=C(O2)C(C(=C)C)[C@@H]2OC(=O)/C(=C\C1O)[C@H]2N(C)C (some centres undefined) please.
Result string: 21.2 µM

Query string: Provide measured TGI on CAKI-1 renal for COC(=O)C1Cc2c([nH]c3ccccc23)C=N1 (centres undefined) please.
Result string: > 100 µM

Query string: Provide measured TGI on CAKI-1 renal for CC1=C(C(=O)Nc2ccc(F)c(Cl)c2)C(c2cccc(Cl)c2)NC(=O)N1 (centres undefined) please.
Result string: > 100 µM

Query string: Provide measured TGI on CAKI-1 renal for C[N+](C)(C)CCCCCc1c2nc(c(CCCCC[N+](C)(C)C)c3ccc([nH]3)c(CCCCC[N+](C)(C)C)c3ccc([nH]3)c(CCCCC[N+](C)(C)C)c3nc1C=C3)C=C2 please.
Result string: > 100 µM

Query string: Provide measured TGI on CAKI-1 renal for CCOc1ccc2c(c1)/C(=C\C=C\C1CC(C)C3CC(OCC)CCC3N1CC)CC(C)N2CC (centres undefined) please.
Result string: 4.16 µM

* * *

Tested on: SNB-19 CNS
measurement.protocol: NCI tumour cell line growth inhibition, 48 h
Entries and their measured TGI follow.

* Cc1[nH]n(C(=O)c2ccccc2O)c(=O)c1/C=C1\C(=O)C=Cc2ccccc21 | 64.3 µM
* Cc1ccc(S(=O)/C=C(\NC(=O)OCc2ccccc2)C(F)(F)F)cc1 (centres undefined) | > 100 µM

Query string: Provide measured TGI on SNB-19 CNS for Cc1cn2c(/C=C3/C(=O)Nc4ccccc43)c(-c3ccccc3)nc2s1 please.
Result string: 55.4 µM

Query string: Provide measured TGI on SNB-19 CNS for Cc1cccc(Nc2cn(CCOc3ccccc3)c(=O)[nH]c2=O)c1 please.
Result string: > 100 µM

Query string: Provide measured TGI on SNB-19 CNS for CC(C)[C@]12O[C@H]1[C@@H]1O[C@]13[C@]1(O[C@H]1C[C@H]1c4c(C(=O)c5ccccc5)oc(OC(=O)c5ccccc5)c4CC[C@@]13C)[C@@H]2O please.
Result string: 36.6 µM

Query string: Provide measured TGI on SNB-19 CNS for C(=N\NC1=NCCCN1)/c1ccc(-c2cn3cc(/C=N/NC4=NCCCN4)ccc3n2)cc1 please.
Result string: > 100 µM

Query string: Provide measured TGI on SNB-19 CNS for COc1nc2c(nc(N)n2C2OC(CO)C(O)C(O)C2O)c(=O)n1C (centres undefined) please.
Result string: > 100 µM

Query string: Provide measured TGI on SNB-19 CNS for COc1ccccc1NC(=S)N/N=C(/c1ccccc1)c1ccccn1 please.
Result string: 21.8 µM

Query string: Provide measured TGI on SNB-19 CNS for O=C1c2cccc3cccc(c23)C(=O)N1CCCCOc1ccc(-c2nc3ccc(N4CCOCC4)cc3[nH]2)cc1 please.
Result string: > 48.5 µM
